# STUDY_SYSTEM: Cannabinoid receptor 2 (Homo sapiens, UniProt P34972)
# Sequence (P34972 whole entry): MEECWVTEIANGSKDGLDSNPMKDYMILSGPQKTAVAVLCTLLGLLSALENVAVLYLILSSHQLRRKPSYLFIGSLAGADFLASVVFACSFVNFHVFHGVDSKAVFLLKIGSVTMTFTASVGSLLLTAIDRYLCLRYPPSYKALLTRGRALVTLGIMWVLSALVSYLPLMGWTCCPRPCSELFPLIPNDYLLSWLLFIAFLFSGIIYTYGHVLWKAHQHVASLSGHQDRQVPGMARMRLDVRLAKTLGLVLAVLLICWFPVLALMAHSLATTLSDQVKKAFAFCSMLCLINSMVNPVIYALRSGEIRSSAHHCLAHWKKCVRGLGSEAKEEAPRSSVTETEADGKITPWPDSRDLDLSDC
# ASSAY_PROCEDURE: Inverse agonist activity at human CB2 receptor expressed in CHO cell membrane assessed as increase in forskolin-stimulated cAMP production at 10 uM by scintillation counting analysis relative to WIN55212-2
Catalogue of Activity values
Record the value in %, omitting the unit from your answer.

Study these solved cases before continuing.
| MOLECULE | Activity / % |
| --- | --- |
| CCCCCn1cc(C(=O)NC2CCCCC2)c(=O)n2nc(C)cc12 | 54 |
| CCCCCn1cc(C(=O)NC2CCCCC2)c(=O)n2nc(-c3ccccc3C)cc12 | 94 |
| CCCCCn1cc(C(=O)NC2CCC(C)CC2)c(=O)n2nc(C)cc12 (stereo not given) | 67 |
| CCCCCn1cc(C(=O)NC2CCCCCC2)c(=O)n2nc(-c3ccccc3Cl)cc12 | 69 |
| CCCCCn1cc(C(=O)NC2CCCCC2)c(=O)n2nc(CC)cc12 | 146 |
| CCCCCn1cc(C(=O)NC2CCCCC2)c(=O)n2nc(-c3ccco3)cc12 | 103 |
| CCCCCn1cc(C(=O)NC23CC4CC(CC(C4)C2)C3)c(=O)n2nc(-c3ccccc3Cl)cc12 | 136 |
| CCCCCn1cc(C(=O)NC23CC4CC(CC(C4)C2)C3)c(=O)n2nc(-c3ccccc3)cc12 | 195 |

Request: Give the measured Activity of "CCCCCn1cc(C(=O)NC2CCCCCC2)c(=O)n2nc(-c3ccc(C)cc3)cc12" .
Result: 107

Request: So what's the measured Activity for this one? "CCCCCn1cc(C(=O)NC2CCCCC2)c(=O)n2nc(-c3ccccc3Cl)cc12"
Result: 55

Request: // returns reported Activity for input "CCCCCn1cc(C(=O)NC2CCCCC2)c(=O)n2nc(-c3ccc(Cl)cc3Cl)cc12"
Result: 65

Request: Item "CCCCCn1cc(C(=O)NC2CCCCCC2)c(=O)n2nc(C)cc12" has what recorded Activity?
Result: 63

Request: Any idea what Activity was measured for "CCCCCn1cc(C(=O)NC23CC4CC(CC(C4)C2)C3)c(=O)n2nc(CC)cc12" ?
Result: 243

Request: Which Activity is reported for this molecule? "CCCCCn1cc(C(=O)NC23CC4CC(CC(C4)C2)C3)c(=O)n2nc(-c3ccco3)cc12"
Result: 124

Request: Give the measured Activity of "CCCCCn1cc(C(=O)NC2CCCCCC2)c(=O)n2nc(-c3ccco3)cc12" .
Result: 88

Request: May I ask what Activity has been recorded for "CCCCCn1cc(C(=O)NC23CC4CC(CC(C4)C2)C3)c(=O)n2nc(C)c(-c3ccc(OC)cc3)c12" ?
Result: 60

Request: Consider the molecule "CCCCCn1cc(C(=O)NC23CC4CC(CC(C4)C2)C3)c(=O)n2nc(-c3cc(C)cs3)cc12" and give its measured Activity.
Result: 97

Request: Entry "CCCCCn1cc(C(=O)NC23CC4CC(CC(C4)C2)C3)c(=O)n2nc(C)cc12" has what Activity?
Result: 75

Request: Quick check: Activity of "CCCCCn1cc(C(=O)NC2CCCCCC2)c(=O)n2nc(C(C)(C)C)cc12" ?
Result: 213

Request: Can you share its Activity? I mean this molecule: "CCCCCn1cc(C(=O)NC23CC4CC(CC(C4)C2)C3)c(=O)n2nc(C(C)(C)C)cc12"
Result: 189
